- targetOrTestSystem: Estrogen receptor (Homo sapiens)
- Sequence (P03372 whole entry): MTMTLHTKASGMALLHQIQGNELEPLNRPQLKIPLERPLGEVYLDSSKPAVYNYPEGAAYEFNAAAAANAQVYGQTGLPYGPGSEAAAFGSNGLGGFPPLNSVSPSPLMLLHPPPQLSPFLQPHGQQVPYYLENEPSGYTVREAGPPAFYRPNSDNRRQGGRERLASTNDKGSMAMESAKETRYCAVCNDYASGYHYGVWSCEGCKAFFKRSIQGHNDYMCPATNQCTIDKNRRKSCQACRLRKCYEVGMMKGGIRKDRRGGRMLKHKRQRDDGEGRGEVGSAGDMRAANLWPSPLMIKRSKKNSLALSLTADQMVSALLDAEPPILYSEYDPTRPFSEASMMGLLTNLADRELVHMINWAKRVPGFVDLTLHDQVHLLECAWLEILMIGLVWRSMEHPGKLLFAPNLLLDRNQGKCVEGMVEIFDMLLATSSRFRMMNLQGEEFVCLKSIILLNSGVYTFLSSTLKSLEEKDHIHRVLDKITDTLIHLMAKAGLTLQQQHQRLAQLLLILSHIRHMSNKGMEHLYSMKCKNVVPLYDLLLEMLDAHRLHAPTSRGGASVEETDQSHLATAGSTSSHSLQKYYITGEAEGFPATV
- testSummary: Displacement of Fluormone ES2 from human recombinant full length untagged-ERalpha by fluorescence polarization competition binding assay
metric: IC50 (nM)

Examples with their reported IC50 follow.
testSmiles	numericResult
CCCCCCCCCCCCCCCCCCNCCOc1ccc(C(=O)c2c(-c3ccc(O)cc3)sc3cc(O)ccc23)cc1	1.8
CCCCCCCCNCCOc1ccc(C(=O)c2c(-c3ccc(O)cc3)sc3cc(O)ccc23)cc1	49
CCCCCCCCCCNCCOc1ccc(C(=O)c2c(-c3ccc(O)cc3)sc3cc(O)ccc23)cc1	40
CCCCCCCCCCCCCCCCNCCOc1ccc(C(=O)c2c(-c3ccc(O)cc3)sc3cc(O)ccc23)cc1	11
CCCCCCCCCCCCNCCOc1ccc(C(=O)c2c(-c3ccc(O)cc3)sc3cc(O)ccc23)cc1	5.9

1: CCCCCCCCCCCCCCNCCOc1ccc(C(=O)c2c(-c3ccc(O)cc3)sc3cc(O)ccc23)cc1
2: CCCCCCNCCOc1ccc(C(=O)c2c(-c3ccc(O)cc3)sc3cc(O)ccc23)cc1
## Task Could you check which of 1 and 2 has a smaller value for IC50? Please reply using the label of the selected record.
## Result 1
